I'd appreciate it if you could supply Onion flavour intensity values for the items below.
Assay: Sensory effects of compounds of formula I in water (triangle test, trained panel)
Conditions: additive 5 mmol/L
Answer with a number only.

Quick one: give measured Onion flavour intensity for CCOC(=O)[C@@H](N)CS [Cys-O—C2H5] 3.5

State its Onion flavour intensity: CCOC(=O)CNC(=O)[C@H](CS)NC(=O)CC[C@H](N)C(=O)O [γ-Glu-Cys-Gly-O—C2H5] 0

# return recorded Onion flavour intensity for input CCOC(=O)[C@@H](N)CO [Ser-O—C2H5] 0

Annotate the molecule CCOC(=O)[C@@H](N)CCSC [Met-O—C2H5] with its measured Onion flavour intensity. 1.5

Write down Onion flavour intensity measured for item COC(=O)[C@@H](N)CS [Cys-O—CH3] 2.5

Output Onion flavour intensity of COC(=O)[C@@H](N)CCSC [Met-O—CH3] 1

Tell us which Onion flavour intensity value is on record for N[C@@H](CS)C(=O)O [Cys-OH, reference compound] 0

Input COC(=O)[C@@H](N)CO [Ser-O—CH3] , output reported Onion flavour intensity. 0

Using the record for CCOC(=O)[C@H](CS)NC(=O)CC[C@H](N)C(=O)O [γ-Glu-Cys-O—C2H5] , state its measured Onion flavour intensity. 4.5

Please supply the value of reported Onion flavour intensity for the item CSCC[C@H](N)C(=O)O [Met-OH] 0

Complete the entry with Onion flavour intensity for N[C@@H](CCC(=O)N[C@@H](CS)C(=O)O)C(=O)O [γ-Glu-Cys-OH, reference compound] 0
